- System: influenza A/chicken/Egypt/N12640A/2016(H5N1)
- Protocol details: microbe, parasite or virus in culture
- Format: cell-based, influenza A virus
- Condition: Influenza A virus, H5N1, MDCK, read-out: PIC50 H5N1
Readout type: IC50 (nM)
Value expressed in nM; do not type the unit.

These recorded examples may help you get a feel for the data.
>  <Compound structure>
CC1=NCCc2c1[nH]c1cc(O)ccc21

>  <Unit info>
nM

>  <IC50>
21

$$$$
>  <Compound structure>
Cc1nccc2c1[nH]c1ccccc12

>  <Unit info>
nM

>  <IC50>
23

$$$$

Moving on to another molecule below.
Query: IC50; subject: "COc1ccc2c3c([nH]c2c1)C(C)=NCC3"
28100
